tested on: P. berghei malaria parasites; test: In vivo antimalarial efficacy, single oral dose of trioxane plus mefloquine hydrochloride in P. berghei-infected mice; conditions: single oral dose of 6 mg/kg trioxane and 18 mg/kg mefloquine hydrochloride (control: mefloquine-HCl only), P. berghei-infected mice
readoutKind: % suppression of parasitemia (on day 3 post infection) (%)
Express your answer in %, writing the number without its unit.

[[record]]
compound = "CSC(=S)OCCCS[C@@H]1O[C@@H]2O[C@]3(C)CC[C@H]4[C@H](C)CC[C@@H]([C@H]1C)[C@@]24OO3 [compound 114, Art-10α-S(CH2)3OC(S)SCH3]"
quantityunit = "%"
experimentalvalue = 99.9


Now look at this entry.
[in] Provide one value: measured % suppression of parasitemia (on day 3 post infection) of C[C@H]1[C@H](SCCCOC(=O)SC(C)(C)C)O[C@@H]2O[C@@]3(C)CC[C@H]4[C@H](C)CC[C@@H]1[C@@]24OO3 [compound 111, Art-10α-S(CH2)3OC(O)StBu]
[out] 99.9

###

tested on: P. berghei malaria parasites; assay: In vivo antimalarial efficacy, single oral dose of trioxane plus mefloquine hydrochloride in P. berghei-infected mice; details: single oral dose of 6 mg/kg trioxane and 18 mg/kg mefloquine hydrochloride (control: mefloquine-HCl only), P. berghei-infected mice, groups of 4
readoutKind: average survival (days) after infection
State just the number; it will be interpreted in days.

[in] Given C[C@H]1[C@H](SCCCOC(=O)SC(C)(C)C)O[C@@H]2O[C@@]3(C)CC[C@H]4[C@H](C)CC[C@@H]1[C@@]24OO3 [compound 111, Art-10α-S(CH2)3OC(O)StBu] , respond with its average survival (days) after infection.
[out] 29.8

[in] Report average survival (days) after infection for CSC(=S)OCCCS[C@@H]1O[C@@H]2O[C@]3(C)CC[C@H]4[C@H](C)CC[C@@H]([C@H]1C)[C@@]24OO3 [compound 114, Art-10α-S(CH2)3OC(S)SCH3]
[out] 22.0

[in] Answer with reported average survival (days) after infection of CSC(=O)OCCCS[C@@H]1O[C@@H]2O[C@@]3(C)CC[C@H]4[C@H](C)CC[C@@H]([C@H]1C)[C@@]24OO3 [compound 109, Art-10α-S(CH2)3OC(O)SCH3]
[out] 24.5

[in] Given the compound Cl.OC(c1cc(C(F)(F)F)nc2c(C(F)(F)F)cccc12)C1CCCCN1 (centres unmarked) [mefloquine-HCl only, mefloquine hydrochloride, reference compound] , write its reported average survival (days) after infection.
[out] 14.0

[in] Identify average survival (days) after infection associated with the compound CCCSC(=O)OCCCS[C@@H]1O[C@@H]2O[C@@]3(C)CC[C@H]4[C@H](C)CC[C@@H]([C@H]1C)[C@@]24OO3 [compound 110, Art-10α-S(CH2)3OC(O)SnPr]
[out] 19.3

###

test system: P. berghei malaria parasites; assay: In vivo antimalarial efficacy, single oral dose of trioxane plus mefloquine hydrochloride in P. berghei-infected mice; conditions: single oral dose of 6 mg/kg trioxane and 18 mg/kg mefloquine hydrochloride (control: mefloquine-HCl only), P. berghei-infected mice
% suppression of parasitemia (on day 3 post infection): recorded values

See these solved cases before continuing.
[[record]]
compound = "Cl.OC(c1cc(C(F)(F)F)nc2c(C(F)(F)F)cccc12)C1CCCCN1 (stereo not drawn) [mefloquine-HCl only, mefloquine hydrochloride, reference compound]"
experimentalvalue = ">99.9%"

[[record]]
compound = "CSC(=O)OCCCS[C@@H]1O[C@@H]2O[C@@]3(C)CC[C@H]4[C@H](C)CC[C@@H]([C@H]1C)[C@@]24OO3"
experimentalvalue = ">99.9%"


# ---- query compound ----
[in] In one line, give reported % suppression of parasitemia (on day 3 post infection) of the entry CCCSC(=O)OCCCS[C@@H]1O[C@@H]2O[C@@]3(C)CC[C@H]4[C@H](C)CC[C@@H]([C@H]1C)[C@@]24OO3 .
[out] >99.9%

Hello, the source for this data is patent US9611273B2, in case you need it.
